- experimental-target: Lck (h) (Homo sapiens)
- Sequence (P06239 whole entry): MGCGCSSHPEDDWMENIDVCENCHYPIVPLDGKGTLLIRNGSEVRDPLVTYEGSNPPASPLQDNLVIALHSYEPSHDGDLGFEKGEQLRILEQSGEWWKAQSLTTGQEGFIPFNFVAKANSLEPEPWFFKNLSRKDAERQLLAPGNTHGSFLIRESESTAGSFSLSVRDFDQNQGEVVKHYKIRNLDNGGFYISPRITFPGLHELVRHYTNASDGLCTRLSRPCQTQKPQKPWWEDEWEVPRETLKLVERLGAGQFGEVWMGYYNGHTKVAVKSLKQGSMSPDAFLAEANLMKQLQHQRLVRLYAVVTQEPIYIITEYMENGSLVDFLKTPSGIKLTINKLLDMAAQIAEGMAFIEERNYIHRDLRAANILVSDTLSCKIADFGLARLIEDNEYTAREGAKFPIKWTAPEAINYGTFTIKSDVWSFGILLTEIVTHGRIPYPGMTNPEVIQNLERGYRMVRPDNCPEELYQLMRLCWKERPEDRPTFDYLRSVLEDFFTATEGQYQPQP
- assay-text: Kinase profiling, glass-fiber filter technology: Lck
- Assay type: biochemical
- setup-conditions: test concentration of 10^−6 M; read-out: Lck inhibition score
measured-attribute: inhibition at 1 µM

Consider the reported inhibition at 1 µM for these molecules:
| molecule | experimental-target | reported-measurement |
| --- | --- | --- |
| C#Cc1ccc2c(c1)Nc1ncnc3cc(OCCCNCCS(C)(=O)=O)c(cc13)OCCCCCN(C)C2 [Compound 20] | Lck (h) (Homo sapiens) | > 80% |
| CC(=O)NCCN1CCN(CCCOc2cc3ncnc4c3cc2OCCCNC(=O)[C@H](C)N(C)Cc2cc(F)c(Cl)cc2N4)CC1 [Compound 6] | Lck (h) (Homo sapiens) | > 80% |
| C[C@H]1C(=O)NCCCOc2cc3c(ncnc3cc2OCCCN2CCN(C(=O)OC(C)(C)C)CC2)Nc2cc(Cl)c(F)cc2CN1C [Int. 16] | Lck (h) (Homo sapiens) | > 80% |

Enquiry: Which measured inhibition at 1 µM value corresponds to CC(=O)NCCNCCCOc1cc2ncnc3c2cc1OCCCCCN(C)Cc1ccc(Br)cc1N3 [Compound 13] ?
Return: > 80%

Enquiry: Value lookup for inhibition at 1 µM; key = CC(=O)OCCN(C)CCCOc1cc2ncnc3c2cc1OCCCNC(=O)[C@H](C)N(C)Cc1cc(F)c(Cl)cc1N3 [Compound 2]
Return: > 80%

Enquiry: Fill in: inhibition at 1 µM of CN1CCCCCOc2cc3c(ncnc3cc2OCCCN2CCS(=O)(=O)CC2)Nc2cc(Cl)c(F)cc2C1 [Compound 19] is ___
Return: > 80%

Enquiry: // returns reported inhibition at 1 µM for input COc1cc2ncnc3c2cc1OCCN(CCN1CCOCC1)C(=O)CNC(=O)Cc1ccc(Cl)cc1N3 [Compound 1]
Return: 10 to 30%

---

- experimental-target: Flt1 human (Homo sapiens)
- Sequence (P17948 27-1338): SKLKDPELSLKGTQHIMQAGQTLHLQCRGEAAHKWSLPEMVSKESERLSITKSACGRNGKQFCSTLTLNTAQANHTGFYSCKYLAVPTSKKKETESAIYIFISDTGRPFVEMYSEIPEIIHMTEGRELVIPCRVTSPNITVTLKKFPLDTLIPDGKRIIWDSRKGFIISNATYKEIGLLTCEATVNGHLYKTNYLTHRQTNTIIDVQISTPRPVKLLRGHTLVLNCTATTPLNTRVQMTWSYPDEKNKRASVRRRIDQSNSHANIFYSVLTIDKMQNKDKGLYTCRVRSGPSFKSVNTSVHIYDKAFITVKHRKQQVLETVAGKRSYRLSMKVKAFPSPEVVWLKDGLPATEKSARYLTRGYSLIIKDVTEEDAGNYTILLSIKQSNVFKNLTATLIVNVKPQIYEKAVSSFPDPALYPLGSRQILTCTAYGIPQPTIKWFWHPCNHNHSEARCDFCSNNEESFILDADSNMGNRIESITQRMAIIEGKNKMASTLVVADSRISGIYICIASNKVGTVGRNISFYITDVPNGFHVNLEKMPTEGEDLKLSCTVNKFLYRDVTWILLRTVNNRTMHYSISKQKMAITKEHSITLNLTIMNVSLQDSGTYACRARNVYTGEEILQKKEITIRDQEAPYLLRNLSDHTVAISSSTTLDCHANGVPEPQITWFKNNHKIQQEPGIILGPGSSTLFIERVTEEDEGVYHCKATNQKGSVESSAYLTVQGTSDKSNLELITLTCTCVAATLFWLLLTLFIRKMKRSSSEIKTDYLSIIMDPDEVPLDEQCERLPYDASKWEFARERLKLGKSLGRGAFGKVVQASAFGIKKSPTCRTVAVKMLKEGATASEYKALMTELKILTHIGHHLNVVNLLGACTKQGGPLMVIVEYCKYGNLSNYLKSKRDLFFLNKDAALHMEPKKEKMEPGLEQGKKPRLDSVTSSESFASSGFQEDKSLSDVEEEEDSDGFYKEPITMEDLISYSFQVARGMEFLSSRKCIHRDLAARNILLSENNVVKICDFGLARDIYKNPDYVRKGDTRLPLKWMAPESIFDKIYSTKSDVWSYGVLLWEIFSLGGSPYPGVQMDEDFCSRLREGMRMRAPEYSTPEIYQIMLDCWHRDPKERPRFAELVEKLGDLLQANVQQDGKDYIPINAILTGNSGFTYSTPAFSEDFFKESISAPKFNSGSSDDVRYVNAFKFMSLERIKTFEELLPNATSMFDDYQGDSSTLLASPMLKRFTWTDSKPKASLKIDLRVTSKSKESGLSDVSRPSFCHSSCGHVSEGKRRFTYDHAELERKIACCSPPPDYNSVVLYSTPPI
- assay-text: Kinase profiling, glass-fiber filter technology: Flt1
- Assay type: biochemical
- setup-conditions: test concentration of 10^−6 M; read-out: Flt1 inhibition score
measured-attribute: inhibition at 1 µM

| structure-notation | inhibition at 1 µM |
| --- | --- |
| C[C@H]1C(=O)NCCCOc2cc3c(ncnc3cc2OCCCN2CCN(C(=O)OC(C)(C)C)CC2)Nc2cc(Cl)c(F)cc2CN1C | 60 to 80% |
| CC(=O)NCCNCCCOc1cc2ncnc3c2cc1OCCCCCN(C)Cc1ccc(Br)cc1N3 | > 80% |
| CN1CCCCCOc2cc3c(ncnc3cc2OCCCNCCS(C)(=O)=O)Nc2cc(Br)ccc2C1 | > 80% |

Enquiry: Recorded inhibition at 1 µM for `CC(=O)NCCNCCCOc1cc2ncnc3c2cc1OCCCNC(=O)[C@H](C)N(C)Cc1cc(F)c(Cl)cc1N3` with Flt1 human (Homo sapiens), please?
Return: 30 to 60%

---

- experimental-target: Fyn human (Homo sapiens)
- Sequence (P06241 whole entry): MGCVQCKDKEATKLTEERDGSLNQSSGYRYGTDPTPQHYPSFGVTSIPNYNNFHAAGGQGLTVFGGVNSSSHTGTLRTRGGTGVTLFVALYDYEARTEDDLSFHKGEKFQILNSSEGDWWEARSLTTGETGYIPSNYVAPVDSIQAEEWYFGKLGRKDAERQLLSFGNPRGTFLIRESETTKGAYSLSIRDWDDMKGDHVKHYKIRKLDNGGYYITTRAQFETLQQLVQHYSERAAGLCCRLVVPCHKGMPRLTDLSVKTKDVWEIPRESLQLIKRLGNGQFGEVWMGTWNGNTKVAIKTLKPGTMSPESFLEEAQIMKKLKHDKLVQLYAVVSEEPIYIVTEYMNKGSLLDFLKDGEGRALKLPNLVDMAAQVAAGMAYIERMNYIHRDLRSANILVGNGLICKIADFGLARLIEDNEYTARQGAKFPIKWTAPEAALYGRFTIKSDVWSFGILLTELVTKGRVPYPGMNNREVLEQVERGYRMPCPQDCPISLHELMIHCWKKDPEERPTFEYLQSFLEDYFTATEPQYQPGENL
- assay-text: Kinase profiling, glass-fiber filter technology: Fyn
- Type: biochemical
- setup-conditions: test concentration of 10^−6 M; read-out: Fyn inhibition score
measured-attribute: inhibition at 1 µM

# count of solved cases: 5
| structure-notation | reported-measurement |
| --- | --- |
| CC(=O)NCCNCCCOc1cc2ncnc3c2cc1OCCCNC(=O)[C@H](C)N(C)Cc1cc(F)c(Cl)cc1N3 | 60 to 80% |
| CC(=O)N(CCO)CCCOc1cc2ncnc3c2cc1OCCCNC(=O)[C@H](C)N(C)Cc1cc(F)c(Cl)cc1N3 | 60 to 80% |
| CC(=O)NCCN1CCN(CCCOc2cc3ncnc4c3cc2OCCCNC(=O)[C@H](C)N(C)Cc2cc(F)c(Cl)cc2N4)CC1 | > 80% |
| COc1cc2ncnc3c2cc1OCCCNC(=O)[C@H](CC1CCCCC1)NC(=O)CCc1ccc(Cl)cc1N3 | 60 to 80% |
| COCCOCCOc1cc2ncnc3c2cc1OCCCCCN(C)Cc1ccc(Br)cc1N3 | > 80% |

Enquiry: Report inhibition at 1 µM for `COc1cc2ncnc3c2cc1OCCCN(CCCN1CCOCC1)C(=O)[C@H](CC(C)C)NC(=O)Cc1ccc(Br)cc1N3` please.
Return: 30 to 60%

Enquiry: Which inhibition at 1 µM reading was recorded for the compound `CC(=O)OCCN(C)CCCOc1cc2ncnc3c2cc1OCCCNC(=O)[C@H](C)N(C)Cc1cc(F)c(Cl)cc1N3` ?
Return: > 80%

---

Below: a set of entries, each annotated with reported inhibition at 1 µM.
- experimental-target: Flt1 human (Homo sapiens)
- assay-text: Kinase profiling, glass-fiber filter technology: Flt1
- Assay type: biochemical
- setup-conditions: test concentration of 10^−6 M; read-out: Flt1 inhibition score

Examples from the recorded data:
| compound | experimental-target | measured-attribute | reported-measurement |
| --- | --- | --- | --- |
| CC(=O)OCCN(C)CCCOc1cc2ncnc3c2cc1OCCCNC(=O)[C@H](C)N(C)Cc1cc(F)c(Cl)cc1N3 [Compound 2] | Flt1 human (Homo sapiens) | inhibition at 1 µM | 30 to 60% |
| COCCOCCOc1cc2ncnc3c2cc1OCCCCCN(C)Cc1ccc(Br)cc1N3 [Int. 43] | Flt1 human (Homo sapiens) | inhibition at 1 µM | 60 to 80% |
| CN1CCCCCOc2cc3c(ncnc3cc2OC[C@@H](O)CN2CCS(=O)(=O)CC2)Nc2cc(Br)ccc2C1 [Compound 12] | Flt1 human (Homo sapiens) | inhibition at 1 µM | 60 to 80% |
| CC(=O)N(CCO)CCCOc1cc2ncnc3c2cc1OCCCNC(=O)[C@H](C)N(C)Cc1cc(F)c(Cl)cc1N3 [Compound 5] | Flt1 human (Homo sapiens) | inhibition at 1 µM | 30 to 60% |
| CN1CCCCCOc2cc3c(ncnc3cc2OCCCNC(=O)OC(C)(C)C)Nc2cc(Br)ccc2C1 [Compound 11] | Flt1 human (Homo sapiens) | inhibition at 1 µM | 30 to 60% |
| C#Cc1ccc2c(c1)Nc1ncnc3cc(OCCCNCCS(C)(=O)=O)c(cc13)OCCCCCN(C)C2 [Compound 20] | Flt1 human (Homo sapiens) | inhibition at 1 µM | > 80% |

Enquiry: # returns recorded inhibition at 1 µM (system: Flt1 human (Homo sapiens)) for COc1cc2ncnc3c2cc1OCCCN(CCCN1CCOCC1)C(=O)[C@H](CC(C)C)NC(=O)Cc1ccc(Br)cc1N3 [Int. 25]
Return: 10 to 30%

Enquiry: Checklist item: inhibition at 1 µM tested on Flt1 human (Homo sapiens), entry CN1CCCCCOc2cc3c(ncnc3cc2OCCCN2CCS(=O)(=O)CC2)Nc2cc(Cl)c(F)cc2C1 [Compound 19] , value?
Return: > 80%

Enquiry: What value of inhibition at 1 µM on Flt1 human (Homo sapiens) does COc1cc2ncnc3c2cc1OCCCN(CCN1CCOCC1)C(=O)CNC(=O)Cc1ccc(Cl)cc1N3 [Compound 15] have?
Return: 10 to 30%

---

- experimental-target: Fgr human (Homo sapiens, UniProt P09769)
- Sequence (P09769 whole entry): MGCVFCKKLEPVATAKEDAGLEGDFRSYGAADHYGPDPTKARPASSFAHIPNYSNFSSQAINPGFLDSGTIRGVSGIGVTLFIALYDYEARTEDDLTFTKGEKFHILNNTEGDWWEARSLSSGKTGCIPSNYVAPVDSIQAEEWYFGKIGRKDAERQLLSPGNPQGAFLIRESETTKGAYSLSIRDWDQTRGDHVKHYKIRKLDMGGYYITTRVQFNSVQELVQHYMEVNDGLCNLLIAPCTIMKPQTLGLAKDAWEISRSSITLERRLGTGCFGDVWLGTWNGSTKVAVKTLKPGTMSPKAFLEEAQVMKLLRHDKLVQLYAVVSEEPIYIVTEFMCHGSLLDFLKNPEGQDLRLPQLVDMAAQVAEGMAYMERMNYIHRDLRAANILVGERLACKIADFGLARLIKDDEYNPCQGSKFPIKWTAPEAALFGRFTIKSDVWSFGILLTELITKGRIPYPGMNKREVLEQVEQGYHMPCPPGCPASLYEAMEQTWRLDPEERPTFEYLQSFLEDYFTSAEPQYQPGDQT
- assay-text: Kinase profiling, glass-fiber filter technology: Fgr
- Format: biochemical
- setup-conditions: test concentration of 10^−6 M; read-out: Fgr inhibition score
// values below are reported inhibition at 1 µM

# example entries with known answers
| structure-notation | reported-measurement |
| --- | --- |
| C[C@H]1C(=O)NCCCOc2cc3c(ncnc3cc2OCCCN2CCN(C(=O)OC(C)(C)C)CC2)Nc2cc(Cl)c(F)cc2CN1C | 10 to 30% |
| COCCOCCOc1cc2ncnc3c2cc1OCCCCCN(C)Cc1ccc(Br)cc1N3 | 30 to 60% |
| CN1CCCCCOc2cc3c(ncnc3cc2OCCCNC(=O)OC(C)(C)C)Nc2cc(Br)ccc2C1 | 10 to 30% |

Enquiry: Request - read-out inhibition at 1 µM | tested on Fgr human (Homo sapiens, UniProt P09769) | molecule `CC(=O)NCCNCCCOc1cc2ncnc3c2cc1OCCCCCN(C)Cc1ccc(Br)cc1N3`
Return: > 80%

Enquiry: Request body: readout inhibition at 1 µM, system Fgr human (Homo sapiens, UniProt P09769), query `C#Cc1ccc2c(c1)Nc1ncnc3cc(OCCCNCCS(C)(=O)=O)c(cc13)OCCCCCN(C)C2` . Return the value.
Return: > 80%

Enquiry: inhibition at 1 µM of `CC(=O)N(CCO)CCCOc1cc2ncnc3c2cc1OCCCNC(=O)[C@H](C)N(C)Cc1cc(F)c(Cl)cc1N3` on Fgr human (Homo sapiens, UniProt P09769)?
Return: 10 to 30%

Enquiry: Hi! What's the reported inhibition at 1 µM for `CN1CCCCCOc2cc3c(ncnc3cc2OCCCNCCS(C)(=O)=O)Nc2cc(Br)ccc2C1` on Fgr human (Homo sapiens, UniProt P09769)?
Return: 60 to 80%

Enquiry: Query for Fgr human (Homo sapiens, UniProt P09769): what inhibition at 1 µM does the record show for `CC(=O)OCCN(C)CCCOc1cc2ncnc3c2cc1OCCCNC(=O)[C@H](C)N(C)Cc1cc(F)c(Cl)cc1N3` ?
Return: 10 to 30%

Enquiry: Request body: readout inhibition at 1 µM, system Fgr human (Homo sapiens, UniProt P09769), query `CN1CCCCCOc2cc3c(ncnc3cc2OCCCN2CCS(=O)(=O)CC2)Nc2cc(Cl)c(F)cc2C1` . Return the value.
Return: 60 to 80%

Enquiry: So what inhibition at 1 µM did `CN1CCCCCOc2cc3c(ncnc3cc2OC[C@@H](O)CN2CCS(=O)(=O)CC2)Nc2cc(Br)ccc2C1` get with Fgr human (Homo sapiens, UniProt P09769)?
Return: 60 to 80%
